molecular target: MAP2K1 (human) (UniProt Q02750); test: radiometric filter-binding kinase assay, Kinase HotSpot; conditions: compound 0.5 µM; ATP 10 µM
Sequence (Q02750 whole entry, looked up): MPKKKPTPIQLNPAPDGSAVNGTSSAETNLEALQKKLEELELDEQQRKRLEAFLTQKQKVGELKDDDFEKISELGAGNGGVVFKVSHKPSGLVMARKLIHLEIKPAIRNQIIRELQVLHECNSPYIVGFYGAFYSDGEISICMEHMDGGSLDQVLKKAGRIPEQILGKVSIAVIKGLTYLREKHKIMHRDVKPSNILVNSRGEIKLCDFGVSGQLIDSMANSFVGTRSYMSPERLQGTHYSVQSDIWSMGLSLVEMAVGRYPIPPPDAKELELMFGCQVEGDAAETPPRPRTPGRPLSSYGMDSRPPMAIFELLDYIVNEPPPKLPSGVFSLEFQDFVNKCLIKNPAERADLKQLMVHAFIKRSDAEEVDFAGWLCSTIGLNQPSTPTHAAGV
Reported residual activity is given for each of the following molecules.
Kindly provide the numeric value in % only, without the unit symbol.

Cn1nc2c3c(cccc31)C(=O)c1ccccc1-2
86.3
CC(C)c1nn(-c2c(Cl)cccc2Cl)c2nc(Cc3ccc(OCCO)cc3)nc(O)c12
99.7
COc1cc2ncc(-c3ccccc3)nc2cc1OC
97.6
Nc1nccc(-c2c(-c3ccc(F)cc3)ncn2C2CCNCC2)n1
98.2
O=C(CCCc1ccc(-c2ccccc2F)cc1)Nc1ccc(O)cc1
104

*Q* For the molecule O=C1Nc2ccccc2/C1=C1\Nc2ccccc2\C1=N/O , give its reported residual activity.
*A* 99.6

*Q* For the molecule CC(=O)O/N=C1\C(=C2\C(=O)Nc3cc(Br)ccc32)Nc2ccccc21 , give its reported residual activity.
*A* 84.9

*Q* For the molecule O=C1NC(=O)C(c2c[nH]c3ccccc23)=C1c1c[nH]c2ccccc12 , give its reported residual activity.
*A* 95.8

*Q* For the molecule COc1ccc(CNC(=O)Nc2ncc([N+](=O)[O-])s2)cc1 , give its reported residual activity.
*A* 101

---

molecular target: BMX (human); assay: radiometric filter-binding kinase assay, Kinase HotSpot; conditions: compound 0.5 µM; ATP 10 µM
Reported residual activity is given for each of the following compounds.
Kindly provide the numeric value in % only, without the unit symbol.

# count of solved cases: 2
Nc1nccc(-c2c(-c3ccc(F)cc3)ncn2C2CCNCC2)n1
92.9
O=C(CCCc1ccc(-c2ccccc2F)cc1)Nc1ccc(O)cc1
99.6

*Q* For the compound O=C(Nc1cccc(Nc2cc(Nc3cccc(C(F)(F)F)c3)ncn2)c1)C1CC1 , give its reported residual activity.
*A* 93.7

*Q* For the compound CC(=O)O/N=C1\C(=C2\C(=O)Nc3cc(Br)ccc32)Nc2ccccc21 , give its reported residual activity.
*A* 67.2

*Q* For the compound COc1ccc(OC)c2c(=S)c3ccccc3[nH]c12 , give its reported residual activity.
*A* 105

*Q* For the compound COc1cc2ncc(-c3ccccc3)nc2cc1OC , give its reported residual activity.
*A* 92.2

*Q* For the compound Oc1ccc(Nc2nc(-c3ccc(Cl)cc3)cs2)cc1 , give its reported residual activity.
*A* 103

---

Reported residual activity is given for each of the following molecules.
biological target: PDPK1 (human); test: radiometric filter-binding kinase assay, Kinase HotSpot; settings: compound 0.5 µM; ATP 10 µM
Kindly provide the numeric value in % only, without the unit symbol.

# count of solved cases: 9
Cc1nc2cc3nc(-c4cccs4)cnc3cc2n1C
106
COc1ccc(OC)c2c(=S)c3ccccc3[nH]c12
94.9
CC(=O)O/N=C1\C(=C2\C(=O)Nc3cc(Br)ccc32)Nc2ccccc21
88.2
CN(C)C[C@H]1CCn2c(c(C3=C(c4cn(C)c5ccccc45)C(=O)NC3=O)c3ccccc32)C1
97
Oc1ccc(Nc2nc(-c3ccc(Cl)cc3)cs2)cc1
101
CCN(CC)CCCCN1c2ccccc2Oc2ccc(Cl)cc21
111
O=C(Nc1cccc(Nc2cc(Nc3cccc(C(F)(F)F)c3)ncn2)c1)C1CC1
100
O=C1Nc2ccccc2/C1=C1\Nc2ccccc2\C1=N/O
93
Nc1nccc(-c2c(-c3ccc(F)cc3)ncn2C2CCNCC2)n1
103

With those in mind, consider the next molecule.
*Q* For the molecule COc1cc2ncc(-c3ccccc3)nc2cc1OC , give its reported residual activity.
*A* 92.6
